target.under.test: P-gp (Homo sapiens, UniProt P08183)
Sequence (P08183 whole entry): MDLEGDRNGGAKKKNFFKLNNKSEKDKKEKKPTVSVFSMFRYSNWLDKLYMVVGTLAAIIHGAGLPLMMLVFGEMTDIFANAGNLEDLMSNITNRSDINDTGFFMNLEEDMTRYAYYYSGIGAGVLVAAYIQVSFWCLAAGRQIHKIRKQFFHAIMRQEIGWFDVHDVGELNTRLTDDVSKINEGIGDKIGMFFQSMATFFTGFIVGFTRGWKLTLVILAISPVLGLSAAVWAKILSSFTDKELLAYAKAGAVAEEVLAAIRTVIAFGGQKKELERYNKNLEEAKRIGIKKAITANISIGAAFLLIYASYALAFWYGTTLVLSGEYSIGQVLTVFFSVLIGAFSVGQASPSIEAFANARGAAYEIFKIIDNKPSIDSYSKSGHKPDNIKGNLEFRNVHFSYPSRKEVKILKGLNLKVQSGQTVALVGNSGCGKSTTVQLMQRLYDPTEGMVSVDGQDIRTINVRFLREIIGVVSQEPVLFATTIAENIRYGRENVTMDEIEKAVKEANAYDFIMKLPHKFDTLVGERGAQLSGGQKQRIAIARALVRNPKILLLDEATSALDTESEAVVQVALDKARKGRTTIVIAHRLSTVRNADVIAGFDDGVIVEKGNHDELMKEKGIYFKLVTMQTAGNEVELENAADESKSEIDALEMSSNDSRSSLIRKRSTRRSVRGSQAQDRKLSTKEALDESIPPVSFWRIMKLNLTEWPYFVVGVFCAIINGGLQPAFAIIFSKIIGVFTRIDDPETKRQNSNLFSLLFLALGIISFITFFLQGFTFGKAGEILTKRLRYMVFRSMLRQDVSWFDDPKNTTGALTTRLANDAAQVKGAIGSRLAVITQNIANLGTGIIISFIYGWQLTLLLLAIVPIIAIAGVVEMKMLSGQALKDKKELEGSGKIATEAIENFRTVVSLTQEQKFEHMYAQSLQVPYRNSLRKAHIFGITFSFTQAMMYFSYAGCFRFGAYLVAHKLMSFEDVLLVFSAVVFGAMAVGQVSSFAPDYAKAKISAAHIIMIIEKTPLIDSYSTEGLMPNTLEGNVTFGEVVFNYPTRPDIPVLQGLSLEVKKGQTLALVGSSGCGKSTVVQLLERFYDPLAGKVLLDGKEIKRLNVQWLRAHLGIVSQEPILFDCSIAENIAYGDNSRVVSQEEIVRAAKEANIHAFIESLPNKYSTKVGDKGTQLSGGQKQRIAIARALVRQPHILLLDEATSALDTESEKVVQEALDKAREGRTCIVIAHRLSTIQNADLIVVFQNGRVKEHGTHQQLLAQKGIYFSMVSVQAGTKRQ
assay.info: in vitro
test.conditions: with Verapamil 100 uM

# compound, Papp at 2 h, 10 μM [nm/s]
rows = [
    ("C[C@H]1O[C@@H](O[C@H]2[C@@H](O)C[C@H](O[C@H]3[C@@H](O)C[C@H](O[C@H]4CC[C@@]5(C)[C@H](CC[C@@H]6[C@@H]5C[C@@H](O)[C@]5(C)[C@@H](C7=CC(=O)OC7)CC[C@]65O)C4)O[C@@H]3C)O[C@@H]2C)C[C@H](O)[C@@H]1O [Digoxin]", 160),
]

---

Parameter viability at 96 h, 100 µM: see the listing below.
assay.info: MTT viability assay on SMI microtissues after drug exposure
test.conditions: human, SMI (small intestinal) microtissues
outcome.measure: viability at 96 h, 100 µM (%)

# compound, outcome.measure, unit.string, measured.value
rows = [
    ("CN/C(=N/CCSCc1nc[nH]c1C)NC#N [Cimetidine]", "viability at 96 h, 100 µM", "%", 96.1),
    ("C=C[C@H]1C[N@@]2CC[C@H]1C[C@@H]2[C@@H](O)c1ccnc2ccc(OC)cc12 [Quinidine]", "viability at 96 h, 100 µM", "%", 99.3),
    ("CCOC(=O)[C@H](CCc1ccccc1)N[C@@H](C)C(=O)N1CCC[C@H]1C(=O)O [Enalapril]", "viability at 96 h, 100 µM", "%", 99),
    ("CNC(=C[N+](=O)[O-])NCCSCc1ccc(CN(C)C)o1 [Ranitidine]", "viability at 96 h, 100 µM", "%", 96),
    ("Nc1nc2c(ncn2COCCO)c(=O)[nH]1 [Acyclovir]", "viability at 96 h, 100 µM", "%", 91.1),
]

---

target.under.test: P-gp (Homo sapiens)
assay.info: in vitro
test.conditions: with Elacider 100 uM
outcome.measure: Papp B→A at 2 h, 10 μM

# compound, measured.value
data = [
    ("CC(C)c1nc(N(C)S(C)(=O)=O)nc(-c2ccc(F)cc2)c1/C=C/[C@@H](O)C[C@@H](O)CC(=O)O [Rosuvastatin]", "5.3 ×10⁻⁶ cm/s"),
]

---

As shown below, each of these molecules has a reported viability at 96 h, 10 µM value.
assay.info: MTT viability assay on SMI microtissues after drug exposure
test.conditions: human, SMI (small intestinal) microtissues

# molecule, unit.string, viability at 96 h, 10 µM
rows = [
    ("CN/C(=N/CCSCc1nc[nH]c1C)NC#N [Cimetidine]", "%", 103),
    ("CCCC(=O)Nc1ccc(OCC(O)CNC(C)C)c(C(C)=O)c1 (stereo not drawn) [Acebutolol]", "%", 97.5),
    ("CNC(=C[N+](=O)[O-])NCCSCc1ccc(CN(C)C)o1 [Ranitidine]", "%", 98.1),
    ("C=C[C@H]1C[N@@]2CC[C@H]1C[C@@H]2[C@@H](O)c1ccnc2ccc(OC)cc12 [Quinidine]", "%", 100),
    ("CCOC(=O)[C@H](CCc1ccccc1)N[C@@H](C)C(=O)N1CCC[C@H]1C(=O)O [Enalapril]", "%", 105),
    ("Nc1nc2c(ncn2COCCO)c(=O)[nH]1 [Acyclovir]", "%", 97.6),
]

---

target.under.test: BCRP (Homo sapiens, UniProt Q9UNQ0)
Sequence (Q9UNQ0 whole entry): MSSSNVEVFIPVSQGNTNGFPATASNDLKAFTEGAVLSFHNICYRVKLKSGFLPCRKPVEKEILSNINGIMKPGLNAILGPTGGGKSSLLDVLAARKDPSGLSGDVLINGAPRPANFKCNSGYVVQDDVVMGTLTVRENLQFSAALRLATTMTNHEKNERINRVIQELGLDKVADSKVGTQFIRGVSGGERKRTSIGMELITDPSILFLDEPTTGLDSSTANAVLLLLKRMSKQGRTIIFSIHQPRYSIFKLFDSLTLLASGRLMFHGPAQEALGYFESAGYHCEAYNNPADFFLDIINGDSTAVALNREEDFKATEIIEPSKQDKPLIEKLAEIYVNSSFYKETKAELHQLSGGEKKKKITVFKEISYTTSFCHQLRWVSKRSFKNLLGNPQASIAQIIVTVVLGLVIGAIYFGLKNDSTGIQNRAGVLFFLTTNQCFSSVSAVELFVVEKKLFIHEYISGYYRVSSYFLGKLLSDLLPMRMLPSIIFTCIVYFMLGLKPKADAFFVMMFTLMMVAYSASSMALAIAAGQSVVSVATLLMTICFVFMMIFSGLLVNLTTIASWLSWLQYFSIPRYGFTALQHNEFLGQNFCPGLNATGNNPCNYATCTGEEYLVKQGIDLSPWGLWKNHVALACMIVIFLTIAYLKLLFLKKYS
assay.info: in vitro
test.conditions: with Novobiocin 50 uM

# compound, Papp at 2 h, 10 μM / ×10⁻⁶ cm/s
data = [
    ("O=C1CN(/N=C/c2ccc([N+](=O)[O-])o2)C(=O)N1 [Nitrofurantoin]", 4.7),
]

Hey, just so you know, these numbers are from paper PMC6599640.
